system: CEM cells HIV-1 protection, formazan growth assay; experiment: NCI AIDS Antiviral Assay;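 active = compounds giving half or more protection of infected cells from virus-caused growth loss, again on retest; inactive = the rest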
Could you please pick one outcome from this set? TRUE for active, FALSE for inactive

Assay result, entry c1ccc2c(c1)C1CCC2c2ccccc21 — outcome?
FALSE

Assay result, entry CC(=O)NS(=O)(=O)c1ccc(NC(=O)c2ccccc2SC(=O)CCCC[n+]2ccccc2)cc1 — outcome?
TRUE

Assay result, entry CCCc1nc(N)nc(C(=O)Nc2cccc(C(F)(F)F)c2)c1CC — outcome?
FALSE

Assay result, entry C=C(C)CCC1C=[N+]([O-])OC(C)(C)C1(C)C (stereo not drawn) — outcome?
FALSE

Assay result, entry CC(=O)c1cccc(NC(=O)C(=O)C(C2OC(=O)c3ccccc32)[N+](=O)[O-])c1 (stereo not drawn) — outcome?
FALSE

Assay result, entry O=[N+]([O-])c1nccn1CCCN=c1c2ccccc2n(O)c2ccccc12 — outcome?
FALSE

Assay result, entry N#CC1Nc2ccccc2[C@@H](O)C1O (stereo partly drawn) — outcome?
FALSE

Assay result, entry CSc1nc(Cl)c2c(n1)Sc1nc3cc4c(cc3n1C2O)OCO4 (stereo not drawn) — outcome?
FALSE

Assay result, entry CCN=C(C#N)NCC — outcome?
FALSE

Assay result, entry COc1ccc(C[C@H](N)C(=O)NC2C(CO)OC(n3cnc4c(N(C)C)ncnc43)C2O)cc1 (stereo partly drawn) — outcome?
FALSE

Assay result, entry CCCCCCCCCCCCOC1OC(COC(C)=O)C(OC(C)=O)C(OC(C)=O)C1OC(C)=O (stereo not drawn) (tested in a mixture with another compound) — outcome?
FALSE

Assay result, entry COC(=O)Cn1cnc2c(Cl)nc(Nc3ccccc3)nc21 — outcome?
FALSE

Assay result, entry ClCc1nn(-c2ccccc2)c(CCl)c1CCl — outcome?
FALSE

Assay result, entry C[C@@H]1C(=O)c2c(O)cc3c(c2O[C@@H]1C)CCC(C)(C)O3 — outcome?
FALSE

Assay result, entry N#CC(NNC(=O)Cc1ccccc1)c1ccccc1O (stereo not drawn) — outcome?
FALSE

Assay result, entry COC(=O)c1ccn2c(N(C)C)[n+]3ccc(C(=O)OC)cc3c2c1 — outcome?
FALSE

Assay result, entry c1ccc(-c2cc(-c3cccs3)c(-c3cccs3)s2)cc1 — outcome?
FALSE

Assay result, entry O=C1CCCc2cc3c(cc21)CC1(C3)Cc2cc3c(cc2C1)C(=O)CCC3 — outcome?
FALSE

Assay result, entry Nc1o[nH]c(=O)c1-c1ccccc1 — outcome?
FALSE

Assay result, entry O=c1[nH]c2c(cnn2-c2ccccc2)c(=O)n1O — outcome?
FALSE

Assay result, entry CCc1c2c([nH]c(=S)c1C#N)CCC2 — outcome?
TRUE

Assay result, entry CCOP(=O)(OCC)C(F)(F)Cc1cnc(C)c2c1COC(C)(C)O2 — outcome?
FALSE

Assay result, entry CN(C)CC1CCCC(CN(C)C)C1=NOC(=O)c1ccccc1 (stereo not drawn) — outcome?
FALSE
